All figures here come from ChEMBL document CHEMBL1201862.

- Test system: HCT-15
- experiment.notes: NCI tumour cell line growth inhibition, 48 h
endpoint.label: GI50 (µM)
Enter your answer as a number in µM; do not include the unit.

O=c1cc(-c2ccccc2)[nH]c2cc(Cl)cc(Cl)c12 = 6.79
COC(=O)NC1(NC(=O)OC)NC(=O)c2cc(OC)c(OC)c(OC)c2N1 = 8.49

Attention now turns to another entry.
Suppose we examine the compound N#Cc1c(-c2ccccc2)cc(Nc2ccc(F)cc2)n2c1nc1ccccc12 ; what GI50 value has been reported? 3.26

---

- Test system: NCI-H460
- experiment.notes: NCI tumour cell line growth inhibition, 48 h
Calls of active or inactive are those of the source. Rule as the data show it: active = GI50 up to about 1.1 µM and inactive = higher.
Respond using exactly one of the listed classes: YES (active), NO (inactive)

Consider the following illustrative entries.
CC1(C)O[C@H]([C@H](O)c2nnc3ccc(Cl)nn23)[C@@H]([C@H]2COC(C)(C)O2)O1 = NO
C/C=C\C(C)=C/C(C)C(=O)CC(O)CC1CC(=O)NC(=O)C1 (stereo not given) = NO
CN1CC[C@@H](c2c(O)cc(O)c3c(=O)cc(-c4ccccc4Cl)oc23)[C@@H](O)C1 = YES
Cc1ccc(/C(=C/C=C(C#N)C#N)Sc2cc(Cl)ccc2Cl)cc1 = NO
COc1cc(Nc2c3ccccc3nc3ccccc23)ccc1NS(C)(=O)=O = NO
N#CC(NC12CC3CC(CC(C3)C1)C2)c1ccccc1C(F)(F)F (stereo not given) = NO

Dear colleague, could you share the recorded outcome for COc1cc2c(cc1OC)C13CC[N+]4(C)CC5=CCOC6CC(=O)N2C1C6C5CC34[O-] (stereo not given) when you have a moment? NO

Dear colleague, could you share the recorded outcome for CC1NCCC(CC(=O)O)C1CC(=O)O (stereo not given) when you have a moment? NO

Dear colleague, could you share the recorded outcome for O=C(/C=C/c1ccc2c(c1)OCO2)NCc1ccco1 when you have a moment? NO

Dear colleague, could you share the recorded outcome for CCOC(=O)c1c(N=C(S)Nc2ccc(Cl)cc2)sc2c1CCN(C)C2 when you have a moment? NO

---

- Tested on: RPMI-8226
- experiment.notes: NCI tumour cell line growth inhibition, 48 h
Calls of active or inactive are those of the source. Cut-off read from the data, not from the text of the source: active = GI50 up to about 1.1 µM and inactive = higher.
endpoint.label: GI50

O=C(O)c1ccc([Se][Se]c2ccc(C(=O)O)cc2)cc1 = 21.2 µM (inactive)

Any idea what GI50 came out for O=Cc1[nH]c(=O)[nH]c(=O)c1C(=O)O on RPMI-8226? > 100 µM (inactive)

Any idea what GI50 came out for CCOC(=O)c1c(N=C(S)Nc2ccc(Cl)cc2)sc2c1CCN(C)C2 on RPMI-8226? 33.9 µM (inactive)

Any idea what GI50 came out for CC(=O)Nc1cc2c(cc1O)CC[C@@H]1[C@@H]2CC[C@]2(C)[C@@H](O)CC[C@@H]12 on RPMI-8226? 45.3 µM (inactive)

Any idea what GI50 came out for Cc1cc(Cl)ccc1NC1=NC(=O)C(CC(=O)Nc2ccc(Cl)cc2Cl)S1 (stereo unspecified) on RPMI-8226? > 100 µM (inactive)

Any idea what GI50 came out for CCOC(=O)COc1ccc(OCC(=O)OCC)c2c1C(=O)CCCC2=O on RPMI-8226? > 100 µM (inactive)

Any idea what GI50 came out for N#CC1=C(N)OC2=C(CCCc3ccc([N+](=O)[O-])cc32)C1c1ccccc1 (stereo unspecified) on RPMI-8226? 2.9 µM (inactive)

Any idea what GI50 came out for Cc1cccc(N(C(=O)Nc2ccc(Cl)c(Cl)c2)C2=NCC(C)S2)c1 (stereo unspecified) on RPMI-8226? 49.1 µM (inactive)

Any idea what GI50 came out for N#CCCN(CCC#N)c1ccc(/C=C2\N=C(c3cc([N+](=O)[O-])ccc3Cl)OC2=O)cc1 on RPMI-8226? 88.7 µM (inactive)

Any idea what GI50 came out for COC(=O)c1ccccc1C1CN=NC12Cc1ccc3ccccc3c1C2=O (stereo unspecified) on RPMI-8226? 13.4 µM (inactive)

Any idea what GI50 came out for C/C=C/C=C/C=C/C=C/C(=O)O on RPMI-8226? > 100 µM (inactive)

Any idea what GI50 came out for O=C1CN(c2ccc(Cl)cc2)C(=O)CN1NCNN1CC(=O)N(c2ccc(Cl)cc2)CC1=O on RPMI-8226? > 100 µM (inactive)

Any idea what GI50 came out for C=CCCON(C(=O)OC(C)(C)C)C(C)(C)C on RPMI-8226? > 100 µM (inactive)

Any idea what GI50 came out for C=C(C1=CC(=O)C(C)(C)O1)[C@@H]1CC=C([C@@H]2CC[C@H]3[C@@]2(C)CC[C@H]2C(C)(C)C(=O)[C@H](OC(=O)CC(C)(O)CC(=O)O)C[C@]32C)[C@H](O)O1 (stereo partly specified) on RPMI-8226? 2.48 µM (inactive)

Any idea what GI50 came out for Cc1cc(N2CCN(C)CC2)n2nc(-c3ccc(Cl)cc3)nc2n1 on RPMI-8226? 56.5 µM (inactive)

Any idea what GI50 came out for CC1CC(=O)NC2CC1C2(C)C (stereo unspecified) on RPMI-8226? > 100 µM (inactive)

---

- System: DLD-1
- experiment.notes: NCI tumour cell line growth inhibition, 48 h
Active and inactive are the calls of the source. No stated cut-off is given here; in the data, active = GI50 up to about 1.1 µM and inactive = higher.
Respond using exactly one of the listed classes: active, inactive

C[N+](C)(C)CC1CCCC/C1=N\O (stereo not drawn) = inactive
CC(C)C1CNC2N1C(=O)C2(C)OCc1ccccc1 (stereo not drawn) = inactive
Cc1ccc(C(N)=O)cc1/N=N/N(C)C = inactive

Dear colleague, could you share the recorded outcome for COc1cc(Nc2c3ccccc3nc3ccccc23)ccc1NS(C)(=O)=O when you have a moment? inactive

Dear colleague, could you share the recorded outcome for CC(O)C(O)C(N)CC=O (stereo not drawn) when you have a moment? inactive

Dear colleague, could you share the recorded outcome for COc1ccc(N2C(=O)C3c4[nH]c5ccccc5c4C4CC(C)(C)CC(C)(C)C4C3C2=O)cc1 (stereo not drawn) when you have a moment? inactive

Dear colleague, could you share the recorded outcome for O=C(O)C1OC(Oc2cc(O)c3c(=O)cc(-c4ccc(O)cc4)oc3c2)C(O)C(O)C1O (stereo not drawn) when you have a moment? inactive

Dear colleague, could you share the recorded outcome for CC(=O)c1ccccc1NC(=O)C(=O)C(C(=O)c1ccccc1-c1ccccc1)C1OC(=O)c2ccccc21 (stereo not drawn) when you have a moment? inactive

Dear colleague, could you share the recorded outcome for CC1=CP(=O)(OC(C)C)C=C(C)C1=C(Cl)Cl (stereo not drawn) when you have a moment? inactive

Dear colleague, could you share the recorded outcome for Cc1ccc(CC(C)N)cc1 (stereo not drawn) when you have a moment? inactive

Dear colleague, could you share the recorded outcome for COC(=O)C1CCc2nnc(-c3cccnc3)n21 (stereo not drawn) when you have a moment? inactive

---

Quick list: GI50 per entry.
- Test system: SK-MEL-5
- experiment.notes: NCI tumour cell line growth inhibition, 48 h
Activity calls are given as the source filed them. Cut-off read from the data, not from the text of the source: active = GI50 up to about 1.1 µM and inactive = higher.

Recorded results for 2 compounds are shown here.
CC1(C)CCCC2(C)[C@@H]1CC[C@]13C[C@](C)(CC[C@@H]21)[C@@H]3CO (some centres undefined) = > 100 µM (inactive)
O=C(O)c1nc2ccc(C(F)(F)F)cc2nc1NCc1ccc(F)cc1 = 16.9 µM (inactive)

Suppose we examine the compound COC(=O)NC1(NC(=O)OC)NC(=O)c2cc(OC)c(OC)c(OC)c2N1 ; what GI50 value has been reported? 11 µM (inactive)

Suppose we examine the compound CC1=CC[C@@H]2[C@@H](CC[C@@]2(C)O)C(C)(C)[C@H]1CC[C@@H]1[C@@]2(C)CCC(=O)C(C)(C)O[C@@H]2CC[C@]1(C)O ; what GI50 value has been reported? 17.2 µM (inactive)

Suppose we examine the compound COc1ccc(N2C(=O)C3c4[nH]c5ccccc5c4C4CC(C)(C)CC(C)(C)C4C3C2=O)cc1 (centres undefined) ; what GI50 value has been reported? 19.4 µM (inactive)

Suppose we examine the compound COc1cc(CNC(=O)CCCCCCCCCCSSCCCCCCCCCCC(=O)NCc2ccc(O)c(OC)c2)ccc1O ; what GI50 value has been reported? > 10 µM (inactive)

Suppose we examine the compound COc1cc2c(c(O)c1C)C(=O)CC(c1ccccc1)O2 (centres undefined) ; what GI50 value has been reported? 18.2 µM (inactive)

Suppose we examine the compound CCOC1c2cc(C(C)C)c(O)c(O)c2[C@@]23CCCC(C)(C)C2C1OC3=O (some centres undefined) ; what GI50 value has been reported? 70.3 µM (inactive)

Suppose we examine the compound O=C(c1ccc(Cl)cc1)N1CCN=C1c1cc2ccccc2c2ccccc12 ; what GI50 value has been reported? 14.8 µM (inactive)

---

- Test system: HCT-116
- experiment.notes: NCI tumour cell line growth inhibition, 48 h
Calls of active or inactive are those of the source. Cut-off read from the data, not from the text of the source: active = GI50 up to about 1.1 µM and inactive = higher.
Quick list: GI50 per entry.

Recorded results for 5 compounds are shown here.
CCOC(=O)C1CCC(=O)N1C(=O)c1cccc(Cl)c1 (stereo unspecified) = > 100 µM (inactive)
c1cnc2c(c1)-n1cccc1C1(CCSCC1)NN2 = > 100 µM (inactive)
N[C@@H](Cc1ccc2oc3cc(=O)c4ccccc4c-3nc2c1)C(=O)O = > 100 µM (inactive)
O=C1c2ccccc2C(=O)N1[C@@H](Cc1ccccc1)C(=O)n1cccc1CO = > 100 µM (inactive)
COc1c(C)n(CCO)ccc1=O = > 100 µM (inactive)

Suppose we examine the compound C#C[C@@H](CCCC)OC(=O)N[C@H](C)c1ccccc1 ; what GI50 value has been reported? 34.3 µM (inactive)

Suppose we examine the compound COc1cccc(N/C(C)=C2/CCOC2=O)c1 ; what GI50 value has been reported? > 10 µM (inactive)

Suppose we examine the compound O=C1/C(=C\c2cccc(Oc3ccccc3)c2)SC(c2ccccc2)N1c1cccc([N+](=O)[O-])c1 (stereo unspecified) ; what GI50 value has been reported? 32.7 µM (inactive)

Suppose we examine the compound C1CCCCC2(CCCCCCCCC3(CCC1)OCCO3)OCCO2 ; what GI50 value has been reported? > 100 µM (inactive)

Suppose we examine the compound C=CCc1ccc(Oc2cc(CC=C)c3c(c2O)O[C@@H](CO)[C@H]3c2ccc(O)c(-c3cc(CC=C)ccc3O)c2)cc1 ; what GI50 value has been reported? 61.9 µM (inactive)

Suppose we examine the compound C1=C\CCCCN2C[C@H]3CCCC/C=C\CCCCN4CC[C@@H]([C@H](CCCCCC/1)C4)[C@H](C3)C2 ; what GI50 value has been reported? 2.11 µM (inactive)

Suppose we examine the compound O=C1c2c(nc3ccccc3c2-c2ccccc2)CN1Nc1ccccn1 ; what GI50 value has been reported? 79.8 µM (inactive)

Suppose we examine the compound C/C(=C(/C)c1cc[n+](C)cc1)c1cc[n+](C)cc1 ; what GI50 value has been reported? > 75 µM (inactive)

Suppose we examine the compound Cc1ccc(NC(=O)CC/C(CC(=O)c2ccc(F)cc2)=N\NC(=O)C(=O)NN)cc1C ; what GI50 value has been reported? > 100 µM (inactive)

Suppose we examine the compound CC(NC(=O)Cc1ccccc1)NC(=O)C(C)C(=O)Nc1ccccc1 (stereo unspecified) ; what GI50 value has been reported? > 100 µM (inactive)

Suppose we examine the compound O=C1CN(c2ccc(Cl)cc2)C(=O)CN1NCNN1CC(=O)N(c2ccc(Cl)cc2)CC1=O ; what GI50 value has been reported? > 100 µM (inactive)

Suppose we examine the compound C#CCOC(=O)C=[N+]=[N-] ; what GI50 value has been reported? > 10 µM (inactive)

Suppose we examine the compound COc1ccc(/C(=N\NC(=O)C(N)=O)C(c2ccc(OC)cc2)C2(O)C(=O)Nc3c(Cl)cccc32)cc1 (stereo unspecified) ; what GI50 value has been reported? > 100 µM (inactive)

Suppose we examine the compound COc1cc(NCC(C#N)C#N)ccc1/N=N/c1ccc(Cl)cc1 ; what GI50 value has been reported? 23.7 µM (inactive)

Suppose we examine the compound O=C(c1ccc(Cl)cc1)N1CCN=C1c1cc2ccccc2c2ccccc12 ; what GI50 value has been reported? 14.9 µM (inactive)

Suppose we examine the compound FC1(F)ON2CCc3ccccc3C2[C@H]1c1ccccc1 (stereo partly specified) ; what GI50 value has been reported? 65.6 µM (inactive)
